system: MDA-MB-435 melanoma; test: NCI-60 one-dose screen, 48 h; settings: 10 µM unless noted
The panel holds about 83,000 compounds, 20% with a hit somewhere; the sample as a whole holds those more often. Activity calls are given as the source filed them. How the source made its calls: active means growth percent below 10; inactive means the rest.
Permitted responses: label 1 = active, label 0 = inactive

Illustrative cases are given below, each with its answer.
molecule: O=S(=O)(NCCCNc1nccc(-c2c(-c3cccc(F)c3)nc3occn23)n1)c1cccc2ccccc12
subject of test: MDA-MB-435 melanoma
assigned label: label 0
--
molecule: C=C(C)[C@@H]1CC[C@]2(C(=O)O)CC[C@]3(C)[C@H](CC[C@@H]4[C@@]5(C)C/C(=C/c6ccco6)C(=O)C(C)(C)[C@@H]5CC[C@]43C)[C@@H]12
subject of test: MDA-MB-435 melanoma
assigned label: label 1
--
molecule: COc1ncc(-c2ccc3nc(N)n(-c4ccccc4C(F)(F)F)c(=O)c3c2)cc1S(=O)(=O)Nc1ccc(F)cc1F
subject of test: MDA-MB-435 melanoma
assigned label: label 0
--
molecule: [2H]C1([2H])CCN(C(=O)C2CC2)c2cc(NS(=O)(=O)c3ccc(-c4cccc(C(N)=O)c4)cc3)ccc21
subject of test: MDA-MB-435 melanoma
assigned label: label 1

What outcome does the record of this test show for O=C1NC(=O)C(Cc2ccc(OCc3ccc(-c4cc(F)c(F)c(F)c4)cc3)cc2)S1 (centres undefined) ?
label 0

Identify the outcome logged in this assay for the molecule shown: `Cn1cc(-c2nnc(-c3cn(C)c4ncc(Br)cc34)o2)c2ccccc21`
label 0

Answer briefly: the call reported for `COc1ccc2nc3ccccc3c(NCCNCCO)c2c1` in this assay.
label 1

Dear all, I need the recorded test outcome for `CCOC(CNC(=O)c1cccc([N+](=O)[O-])c1)OCC` , thank you.
label 0

Any idea what this test logged for `O=c1cc(-c2ccccc2)oc2cc(OCc3cn(Cc4ccc(F)cc4)nn3)cc(O)c12` ?
label 0

Hello, I am checking results. What call was entered for `COc1ncc(-c2ccc3nccc(C#CCCCCC(=O)NO)c3c2)cc1NS(=O)(=O)c1ccc(F)cc1F` ?
label 1

I'd appreciate the recorded outcome for CC1Cc2c(Cl)ncnc2N(C)c2ccc(O)cc21 (centres undefined) from this test.
label 0

// param item: `O=C(Nc1ccccc1)Nc1ccc(C(=O)/C=C/c2ccc(N3CCCC3)cc2)cc1` ; yields the recorded call
label 1

# fetch the recorded call for `Brc1ccc(-c2nnc3c4[nH]ccc4ncn23)cc1` here
label 0

What classification did `Cc1ccc(N)c(O)c1` end up with in this test?
label 0

Dear colleague, could you share the recorded outcome for `CCCN1CC(c2ccc(OC)c(OC)c2)=C(c2cn(C(=O)OCC)c3ccccc23)C1=O` when you have a moment?
label 1

Please indicate how the test categorized CCc1ccc(-c2ccc(COc3ccc(CC4SC(=O)NC4=O)cc3)cc2)cc1 (centres undefined) .
label 0

What was the test verdict on `C=C(C)[C@@H]1CC[C@]2(C)[C@H](CC=C3[C@@H]4[C@@H](C)[C@H](C)CC[C@]4(C(N)=O)CC[C@]32C)[C@@]1(C)CCC#N` ?
label 1

How did this test come out for `CC(C)(C)c1cc(C(=O)Nc2ccccc2C(=O)NCCN)cc(C(C)(C)C)c1` ?
label 1

Any idea what this test logged for `O=C1COCCN1c1ccc(NCc2cn(Cc3ccc(F)cc3)c3ccccc23)cc1` ?
label 0
